Target: human FXR (NR1H4) (Homo sapiens)
Sequence (Q96RI1 whole entry, the tested form may be a part): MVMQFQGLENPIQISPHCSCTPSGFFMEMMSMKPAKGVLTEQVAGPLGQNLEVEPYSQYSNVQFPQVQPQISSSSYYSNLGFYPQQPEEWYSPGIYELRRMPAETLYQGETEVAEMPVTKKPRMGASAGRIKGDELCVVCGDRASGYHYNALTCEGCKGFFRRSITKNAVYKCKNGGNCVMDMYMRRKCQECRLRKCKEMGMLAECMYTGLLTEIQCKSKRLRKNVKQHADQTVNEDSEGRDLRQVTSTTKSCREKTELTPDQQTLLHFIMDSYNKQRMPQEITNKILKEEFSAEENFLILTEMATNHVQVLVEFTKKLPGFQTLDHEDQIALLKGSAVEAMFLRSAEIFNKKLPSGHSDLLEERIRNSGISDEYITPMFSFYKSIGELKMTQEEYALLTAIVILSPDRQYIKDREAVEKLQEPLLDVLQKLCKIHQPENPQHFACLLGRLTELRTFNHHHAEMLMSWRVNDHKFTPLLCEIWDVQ
Test: Human FXR (NR1H4) Assay: Gal4 promoter driven luciferase reporter transactivation in CHO cells (Indigo Bioscience kit IB00601)
Assay type: cell-based
Conditions: potency range, Human FXR (NR1H4) reporter assay in CHO cells; read-out: EC50
pEC50: −log10 of the molar value.
Measured Property: pEC50

Known results for compounds:
In [3]: df
Out[3]:
                                   compound    meas_value
0  COC(=O)c1cccc(OC)c1NC(=O)N1C2CCC1CC(OCc1c(-c3ccccc3OC(F)(F)F)noc1C1CC1)C2 (stereo not drawn) [Example 751]  6.00 to 7.00
1  O=C(O)c1ccc(NC(=O)N2C3CCC2CC(OCc2c(-c4c(Cl)cccc4Cl)noc2C2CC2)C3)cc1C(F)(F)F (stereo not drawn) [Example 195]  7.00 to 8.00
2  O=C(Nc1cccc(C2CCCCC2)c1)N1C2CCC1CC(OCc1c(-c3c(Cl)cccc3Cl)noc1C1CC1)C2 (stereo not drawn) [Example 712]  7.00 to 8.00

Name the reported pEC50 value associated with the compound O=C(O)c1ccc(NC(=O)N2C3CCC2CC(OCc2c(-c4c(F)cccc4F)noc2C2CC2)C3)c(C(F)(F)F)c1 (stereo not drawn) [Example 818]
7.00 to 8.00

What about COC(=O)c1ccc(NC(=O)N2C3CCC2CC(OCc2c(-c4c(Cl)cccc4Cl)noc2C2CC2)C3)c(OC(F)(F)F)c1 (stereo not drawn) [Example 716] ?
6.00 to 7.00

What about O=C(Nc1ccncc1)N1C2CCC1CC(OCc1c(-c3c(Cl)cccc3Cl)noc1C1CC1)C2 (stereo not drawn) [Example 17] ?
7.00 to 8.00

What about O=C(O)c1ccc(NC(=O)N2C3CCC2CC(OCc2c(-c4c(Cl)cccc4Cl)noc2C2CC2)C3)c(F)c1 (stereo not drawn) [Example 692] ?
> 8.00

What about O=C(Nc1ccccc1C(F)(F)F)N1C2CCC1CC(OCc1c(-c3c(Cl)cccc3Cl)noc1C1CC1)C2 (stereo not drawn) [Example 6] ?
6.00 to 7.00

What about CCOC(=O)c1ccc2c(c1)CCN2C(=O)N1C2CCC1CC(OCc1c(-c3ccccc3OC(F)(F)F)noc1C1CC1)C2 (stereo not drawn) [Example 591] ?
< 6.00

What about O=C(O)c1ccc(NC(=O)N2C3CCC2CC(OCc2c(-c4ccccc4OC(F)(F)F)noc2C2CC2)C3)cc1 (stereo not drawn) [Example 230] ?
7.00 to 8.00

What about Cn1nnnc1-c1cccc(NC(=O)N2C3CCC2CC(OCc2c(-c4c(Cl)cccc4Cl)noc2C2CC2)C3)c1 (stereo not drawn) [Example 186] ?
7.00 to 8.00

What about O=C(O)c1ccc(NC(=O)N2C3CCC2CC(OCc2c(-c4ccccc4C4CC4)noc2C2CC2)C3)cc1-c1ccccc1 (stereo not drawn) [Example 814] ?
7.00 to 8.00

What about O=C(O)c1ccc2c(c1)CCN2C(=O)N1C2CCC1CC(OCc1c(-c3ccccc3OC(F)(F)F)noc1C1CC1)C2 (stereo not drawn) [Example 592] ?
< 6.00

What about O=C(NS(=O)(=O)C1CC1)c1ccc(NC(=O)N2C3CCC2CC(OCc2c(-c4ccccc4OC(F)(F)F)noc2C2CC2)C3)cc1 (stereo not drawn) [Example 755] ?
6.00 to 7.00

What about CCOC(=O)c1cccc(NC(=O)N2C3CCC2CC(OCc2c(-c4ccccc4OC(F)(F)F)noc2C2CC2)C3)n1 (stereo not drawn) [Example 766] ?
< 6.00
